System: HCC-366
Test: relative viability (nuclei count vs DMSO), 5 days (fraction); higher = more cells survive
Settings: first compound 0.253 µM
Listing of entries alongside the reported relative viability.
measurement-name: relative viability

• COc1nc(C)cnc1NS(=O)(=O)c1cccnc1-c1ccc(-c2nnco2)cc1 [Zibotentan] + NC(=O)Nc1cc(-c2cccc(F)c2)sc1C(=O)N[C@H]1CCCNC1 [AZD7762] (partner 0.2 µM) = 0.208
• COc1nc(C)cnc1NS(=O)(=O)c1cccnc1-c1ccc(-c2nnco2)cc1 [Zibotentan] + C[C@@H](Oc1cc(-c2cnn(C3CCNCC3)c2)cnc1N)c1c(Cl)ccc(F)c1Cl [Crizotinib] (partner 1 µM) = 0.572
• COc1nc(C)cnc1NS(=O)(=O)c1cccnc1-c1ccc(-c2nnco2)cc1 [Zibotentan] + O=C(CCCCCCC(=O)Nc1ccccc1)NO [Vorinostat] (partner 1 µM) = 0.248
• O=c1cc(-c2cccc3c2Sc2ccccc2S3)oc(N2CCOCC2)c1 + C[C@]1(O)C[C@@H](c2nc(-c3ccc4ccc(-c5ccccc5)nc4c3)c3c(N)nccn32)C1 [Linsitinib] (partner 1 µM) = 1.07
• O=c1cc(-c2cccc3c2Sc2ccccc2S3)oc(N2CCOCC2)c1 + N=C(N)NC(=N)NCCc1ccccc1 [Phenformin] (partner 250 µM) = 0.727
• O=c1cc(-c2cccc3c2Sc2ccccc2S3)oc(N2CCOCC2)c1 + CC(=O)Nc1cccc(-n2c(=O)n(C3CC3)c(=O)c3c(Nc4ccc(I)cc4F)n(C)c(=O)c(C)c32)c1 [Trametinib] (partner 0.02 µM) = 0.474
• COc1nc(C)cnc1NS(=O)(=O)c1cccnc1-c1ccc(-c2nnco2)cc1 [Zibotentan] + COc1cc2c(Oc3ccc(NC(=O)C4(C(=O)Nc5ccc(F)cc5)CC4)cc3F)ccnc2cc1OCCCN1CCOCC1 [Foretinib] (partner 0.25 µM) = 0.903
• COc1nc(C)cnc1NS(=O)(=O)c1cccnc1-c1ccc(-c2nnco2)cc1 [Zibotentan] + CC(=O)Nc1cccc(-n2c(=O)n(C3CC3)c(=O)c3c(Nc4ccc(I)cc4F)n(C)c(=O)c(C)c32)c1 [Trametinib] (partner 0.02 µM) = 0.318
• O=c1cc(-c2cccc3c2Sc2ccccc2S3)oc(N2CCOCC2)c1 + CC(=O)c1c(C)c2cnc(Nc3ccc(N4CCNCC4)cn3)nc2n(C2CCCC2)c1=O [Palbociclib] (partner 0.5 µM) = 0.349

----------
System: HOP-62
Assay: relative viability (nuclei count vs DMSO), 5 days (fraction); higher = more cells survive
Details: first compound 2.53 µM
Threshold check on relative viability: strictly below 0.6 is condition met; on or above 0.6 is condition not met.

• O=c1cc(-c2cccc3c2Sc2ccccc2S3)oc(N2CCOCC2)c1 + Cc1nc(NC(=O)N2CCC[C@H]2C(N)=O)sc1-c1ccnc(C(C)(C)C(F)(F)F)c1 [Alpelisib] (partner 2 µM) = condition not met
• COc1nc(C)cnc1NS(=O)(=O)c1cccnc1-c1ccc(-c2nnco2)cc1 [Zibotentan] + Nc1nc2[nH]cc(CCc3ccc(C(=O)N[C@@H](CCC(=O)O)C(=O)O)cc3)c2c(=O)[nH]1 [Pemetrexed] (partner 0.2 µM) = condition met
• COc1nc(C)cnc1NS(=O)(=O)c1cccnc1-c1ccc(-c2nnco2)cc1 [Zibotentan] + O=C(c1cc(Cc2n[nH]c(=O)c3ccccc23)ccc1F)N1CCN(C(=O)C2CC2)CC1 [Olaparib] (partner 8 µM) = condition met
• COc1nc(C)cnc1NS(=O)(=O)c1cccnc1-c1ccc(-c2nnco2)cc1 [Zibotentan] + O=C(CCCCCCC(=O)Nc1ccccc1)NO [Vorinostat] (partner 1 µM) = condition not met
• COc1nc(C)cnc1NS(=O)(=O)c1cccnc1-c1ccc(-c2nnco2)cc1 [Zibotentan] + Nc1ncn([C@H]2C[C@H](O)[C@@H](CO)O2)c(=O)n1 [Decitabine] (partner 2 µM) = condition met
• O=c1cc(-c2cccc3c2Sc2ccccc2S3)oc(N2CCOCC2)c1 + CC(C)C[C@H](NC(=O)[C@H](Cc1ccccc1)NC(=O)c1cnccn1)B(O)O [Bortezomib] (partner 0.002 µM) = condition not met
• O=c1cc(-c2cccc3c2Sc2ccccc2S3)oc(N2CCOCC2)c1 + C[C@]1(O)C[C@@H](c2nc(-c3ccc4ccc(-c5ccccc5)nc4c3)c3c(N)nccn32)C1 [Linsitinib] (partner 1 µM) = condition not met
• O=c1cc(-c2cccc3c2Sc2ccccc2S3)oc(N2CCOCC2)c1 + Nc1ncn([C@H]2C[C@H](O)[C@@H](CO)O2)c(=O)n1 [Decitabine] (partner 2 µM) = condition met

----------
System: SK-LU-1
Assay: relative viability (nuclei count vs DMSO), 5 days (fraction); higher = more cells survive
Conditions: first compound 0.08 µM
Hi! Could you tag entries with relative viability below 0.6 as yes, and those at or above as no? Much appreciated.

* O=c1cc(-c2cccc3c2Sc2ccccc2S3)oc(N2CCOCC2)c1 + CC(=O)Nc1cccc(-n2c(=O)n(C3CC3)c(=O)c3c(Nc4ccc(I)cc4F)n(C)c(=O)c(C)c32)c1 [Trametinib] (partner 0.02 µM) | yes
* COc1nc(C)cnc1NS(=O)(=O)c1cccnc1-c1ccc(-c2nnco2)cc1 [Zibotentan] + Cc1cc(Nc2cc(N3CCN(C)CC3)nc(Sc3ccc(NC(=O)C4CC4)cc3)n2)n[nH]1 [Tozasertib] (partner 0.1 µM) | yes
* COc1nc(C)cnc1NS(=O)(=O)c1cccnc1-c1ccc(-c2nnco2)cc1 [Zibotentan] + Cc1nc(NC(=O)N2CCC[C@H]2C(N)=O)sc1-c1ccnc(C(C)(C)C(F)(F)F)c1 [Alpelisib] (partner 2 µM) | no
* O=c1cc(-c2cccc3c2Sc2ccccc2S3)oc(N2CCOCC2)c1 + O=C(c1cc(Cc2n[nH]c(=O)c3ccccc23)ccc1F)N1CCN(C(=O)C2CC2)CC1 [Olaparib] (partner 8 µM) | yes
* O=c1cc(-c2cccc3c2Sc2ccccc2S3)oc(N2CCOCC2)c1 + CCNC(=O)c1noc(-c2cc(C(C)C)c(O)cc2O)c1-c1ccc(CN2CCOCC2)cc1 [Luminespib] (partner 0.01 µM) | yes

----------
Catalogue of relative viability readings, one per entry.
Test system: 201T
Experiment: relative viability (nuclei count vs DMSO), 5 days (fraction); higher = more cells survive
Conditions: first compound 0.1 µM
measurement-name: relative viability

• CCN(CC)CCCCNc1ncc2cc(-c3cc(OC)cc(OC)c3)c(NC(=O)NC(C)(C)C)nc2n1 + O=C(c1cc(Cc2n[nH]c(=O)c3ccccc23)ccc1F)N1CCN(C(=O)C2CC2)CC1 [Olaparib] (partner 8 µM) = 0.924
• O=c1cc(N2CCOCC2)oc2c(-c3cccc4c3sc3ccccc34)cccc12 + CS(=O)(=O)N1CCN(Cc2cc3nc(-c4cccc5[nH]ncc45)nc(N4CCOCC4)c3s2)CC1 [Pictilisib] (partner 1 µM) = 0.692
• CCN(CC)CCCCNc1ncc2cc(-c3cc(OC)cc(OC)c3)c(NC(=O)NC(C)(C)C)nc2n1 + CC1(C)CCC(c2ccc(Cl)cc2)=C(CN2CCN(c3ccc(C(=O)NS(=O)(=O)c4ccc(N[C@H](CCN5CCOCC5)CSc5ccccc5)c(S(=O)(=O)C(F)(F)F)c4)cc3)CC2)C1 [Navitoclax] (partner 0.5 µM) = 1.24
• CCN(CC)CCCCNc1ncc2cc(-c3cc(OC)cc(OC)c3)c(NC(=O)NC(C)(C)C)nc2n1 + Cc1cc(Nc2cc(N3CCN(C)CC3)nc(Sc3ccc(NC(=O)C4CC4)cc3)n2)n[nH]1 [Tozasertib] (partner 0.1 µM) = 0.979

----------
System: LCLC-103H
Assay: relative viability (nuclei count vs DMSO), 5 days (fraction); higher = more cells survive
Settings: first compound 0.08 µM
Items are presented alongside their recorded relative viability.
measurement-name: relative viability

* O=c1cc(-c2cccc3c2Sc2ccccc2S3)oc(N2CCOCC2)c1 + Nc1ncn([C@H]2C[C@H](O)[C@@H](CO)O2)c(=O)n1 [Decitabine] (partner 2 µM) | 0.721
* O=c1cc(-c2cccc3c2Sc2ccccc2S3)oc(N2CCOCC2)c1 + O=C(c1cc(Cc2n[nH]c(=O)c3ccccc23)ccc1F)N1CCN(C(=O)C2CC2)CC1 [Olaparib] (partner 8 µM) | 0.765
* O=c1cc(-c2cccc3c2Sc2ccccc2S3)oc(N2CCOCC2)c1 + Cc1cc(Nc2cc(N3CCN(C)CC3)nc(Sc3ccc(NC(=O)C4CC4)cc3)n2)n[nH]1 [Tozasertib] (partner 0.1 µM) | 0.285

----------
Tested on: NCI-H2170
Assay: relative viability (nuclei count vs DMSO), 5 days (fraction); higher = more cells survive
Conditions: first compound 0.01 µM
measurement-name: relative viability

- CCN(CC)CCCCNc1ncc2cc(-c3cc(OC)cc(OC)c3)c(NC(=O)NC(C)(C)C)nc2n1 + CCNC(=O)c1noc(-c2cc(C(C)C)c(O)cc2O)c1-c1ccc(CN2CCOCC2)cc1 [Luminespib] (partner 0.01 µM): 0.446
- CCN(CC)CCCCNc1ncc2cc(-c3cc(OC)cc(OC)c3)c(NC(=O)NC(C)(C)C)nc2n1 + Cc1nc(Nc2ncc(C(=O)Nc3c(C)cccc3Cl)s2)cc(N2CCN(CCO)CC2)n1 [Dasatinib] (partner 0.075 µM): 0.537
- CCN(CC)CCCCNc1ncc2cc(-c3cc(OC)cc(OC)c3)c(NC(=O)NC(C)(C)C)nc2n1 + NC(=O)Nc1cc(-c2cccc(F)c2)sc1C(=O)N[C@H]1CCCNC1 [AZD7762] (partner 0.2 µM): 0.865
- O=c1cc(N2CCOCC2)oc2c(-c3cccc4c3sc3ccccc34)cccc12 + O=C(c1cc(Cc2n[nH]c(=O)c3ccccc23)ccc1F)N1CCN(C(=O)C2CC2)CC1 [Olaparib] (partner 8 µM): 0.673
- CCN(CC)CCCCNc1ncc2cc(-c3cc(OC)cc(OC)c3)c(NC(=O)NC(C)(C)C)nc2n1 + Nc1ncn([C@H]2C[C@H](O)[C@@H](CO)O2)c(=O)n1 [Decitabine] (partner 2 µM): 0.474
- CCN(CC)CCCCNc1ncc2cc(-c3cc(OC)cc(OC)c3)c(NC(=O)NC(C)(C)C)nc2n1 + Cc1cc(Nc2cc(N3CCN(C)CC3)nc(Sc3ccc(NC(=O)C4CC4)cc3)n2)n[nH]1 [Tozasertib] (partner 0.1 µM): 0.619
- CCN(CC)CCCCNc1ncc2cc(-c3cc(OC)cc(OC)c3)c(NC(=O)NC(C)(C)C)nc2n1 + N=C(N)NC(=N)NCCc1ccccc1 [Phenformin] (partner 250 µM): 0.417
- O=c1cc(N2CCOCC2)oc2c(-c3cccc4c3sc3ccccc34)cccc12 + CC1(C)CCC(c2ccc(Cl)cc2)=C(CN2CCN(c3ccc(C(=O)NS(=O)(=O)c4ccc(N[C@H](CCN5CCOCC5)CSc5ccccc5)c(S(=O)(=O)C(F)(F)F)c4)cc3)CC2)C1 [Navitoclax] (partner 0.5 µM): 0.69
